- SYSTEM_TESTED: THR beta-LBD (Homo sapiens)
- Construct: THR beta-LBD (the final concentration is 0.5 nM) was added to the 384-well assay plate; purchased Invitrogen PV4686
- Sequence (P10828 217-461 limits assumed): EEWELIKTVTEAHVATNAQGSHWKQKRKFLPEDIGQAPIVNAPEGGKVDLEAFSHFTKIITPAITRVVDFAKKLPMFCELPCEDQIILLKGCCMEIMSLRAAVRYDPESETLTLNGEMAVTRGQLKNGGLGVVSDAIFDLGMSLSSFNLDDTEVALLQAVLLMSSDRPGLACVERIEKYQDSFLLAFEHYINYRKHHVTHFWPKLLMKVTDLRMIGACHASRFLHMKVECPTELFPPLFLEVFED
- ASSAY_REMARKS: THR-β Coactivator Peptide Recruitment Assay (LanthaScreen TR-FRET)
- Assay type: biochemical
- REPORTED_CONDITIONS: TR-FRET coactivator recruitment, THR beta-LBD 0.5 nM; read-out: THRβ EC50
Catalogue of EC50 values

Solved entries:
CN(C)S(=O)(=O)c1cc(Oc2c(Cl)cc(-n3nc(C(F)F)c(=O)[nH]c3=O)cc2Cl)ncc1O [Compound 113]    < 2 nM
O=c1[nH]c(=O)n(-c2cc(Cl)c(Oc3ccc(O)c(S(=O)(=O)NC4(CO)CC4)c3)c(Cl)c2)nc1C(F)F [Compound 70]    2 to 20 nM

The measured EC50 associated with NC(=O)C1(NS(=O)(=O)c2cc(Oc3c(Cl)cc(-n4nc(C(F)F)c(=O)[nH]c4=O)cc3Cl)ccc2O)CC1 [Compound 24] reads < 2 nM
